biological target: T1, Human ACVR2A (human, UniProt P27037 20-135, limits assumed); assay: ELISA; further: test concentration or dose not given here
T1 construct: also called activin receptor, type II A
T1 sequence (P27037 20-135 limits assumed): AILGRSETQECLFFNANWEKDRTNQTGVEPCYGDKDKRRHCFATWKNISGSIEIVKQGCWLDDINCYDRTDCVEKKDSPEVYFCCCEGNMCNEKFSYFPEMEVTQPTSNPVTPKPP
Record form. Attribute: optical density. Fill in for each entry.

INPUT: Bench note: what optical density did 376_G10 (antibody, V domains shown, VH/VL only) VH: EVQLLESGGGLVQPGGSLRLSCAASGFTFDSYGMNWVRQAPGKGLEWVAGINYNGGYTSYADSVKGRFTISRDNSKNTLYLQMNSLRAEDTAVYYCARGANWHDTALDYWGQGTLVTVSS VL: DIQMTQSPSSLSASVGDRVTITCRASQSILSYVNWYQQKPGKAPKLLIYAATSRASGVPSRFSGSGSGTDFTLTISSLQPEDFATYYCQQSYESPLTFGGGTKVEIK show?
OUTPUT: 3.54 OD

INPUT: Bench note: what optical density did 372_F02 (antibody, V domains shown, VH/VL only) VH: EVQLLESGGGLVQPGGSLRLSCAASGFTFSSYGMHWVRQAPGKGLEWVASINYNGGYTSYADSVKGRFTISRDNSKNTLYLQMNSLRAEDTAVYYCARGATWHDTHLDYWGQGTLVTVSS VL: DIQMTQSPSSLSASVGDRVTITCRASQSILTYLNWYQQKPGKAPKLVIYAATSRHSGVPSRFSGSGSGTDFTLTISSLQPEDFATYYCQQSYDLPLTFGGGTKVEIK show?
OUTPUT: 3.01 OD

INPUT: Bench note: what optical density did 371_B01 (antibody, V domains shown, VH/VL only) VH: EVQLLESGGGLVQPGGSLRLSCAASGFTFDSYSMNWVRQAPGKGLEWVSNINYNSGYTGYADSVKGRFTISRDNSKNTLYLQMNSLRAEDTAVYYCARGATWHDTHLDYWGQGTLVTVSS VL: DIQMTQSPSSLSASVGDRVTITCRASQSILSYVNWYQQKPGKAPKLLIYAATSLASGVPSRFSGSGSGTDFTLTISSLQPEDFATYYCQQSYDLPLTFGGGTKVEIK show?
OUTPUT: 3.26 OD
